Target: phosphorylated VEGF-R2Δ50 (FLVK-P) (Homo sapiens, UniProt P35968, DEL940-989/E990V)
Construct: VEGF-R2Δ50 contains residues 806-939 and 990-1171; made in house; host or cells: baculovirus/insect cells
Sequence (P35968 with tags, fused parts or gaps DEL940-989/E990V limits assumed): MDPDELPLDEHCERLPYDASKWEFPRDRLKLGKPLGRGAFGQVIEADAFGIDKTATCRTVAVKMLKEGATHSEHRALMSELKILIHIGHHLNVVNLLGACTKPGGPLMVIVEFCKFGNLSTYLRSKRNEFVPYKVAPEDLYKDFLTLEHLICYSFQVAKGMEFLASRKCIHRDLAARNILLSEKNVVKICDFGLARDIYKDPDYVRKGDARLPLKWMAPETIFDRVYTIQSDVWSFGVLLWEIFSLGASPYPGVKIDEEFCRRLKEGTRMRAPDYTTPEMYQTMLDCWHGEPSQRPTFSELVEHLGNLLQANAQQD
Assay: VEGF-R2 coupled spectrophotometric assay, phosphorylated construct (FLVK-P)
Type: biochemical
Conditions: μM
Endpoint: Ki (µM)
Respond numerically; units are µM and should not be typed.

Return Ki measured with phosphorylated VEGF-R2Δ50 (FLVK-P) (Homo sapiens, UniProt P35968, DEL940-989/E990V) given this molecule: COc1cc(NC(=O)c2cccc(CSc3nc(N)n[nH]3)c2)cc(OC)c1OC
100

These entries and their values trace back to patent US6635641B2.
